Ref: patent US5880146A

Consider the following molecules and their measured LD50 readings.
assay: Toxicity of bis-compounds after single systemic dose; format: in vivo; conditions: mouse, in vivo, iv; 20% DMSO, 16% cremaphor; conc. sol. 10 mg/ml; single dose

Lab note: Cc1cc(C)c(O)c(C(CCCCCCC(C)C)c2cc(C)cc(C)c2O)c1 gave LD50 of > 150 mg/kg

// LD50 lookup, molecule = Cc1cc(C)c(O)c(Cc2cc(C)cc(C)c2O)c1 , result: > 150 mg/kg

Entry Cc1cc(C)c(O)c(C(CC(C)CC(C)(C)C)c2cc(C)cc(C)c2O)c1 (stereo not drawn) — recorded LD50 = 100 to 150 mg/kg

Summary for this molecule, Cc1cc(C(CCc2ccccc2)c2cc(C)cc(C(C)(C)C)c2O)c(O)c(C(C)(C)C)c1 : LD50 is > 150 mg/kg

Form field LD50, entry CCCC(c1cc(C)c(O)c(C)c1)c1cc(C)c(O)c(C)c1 : > 150 mg/kg

So, CCCCCCC(c1cc(C)cc(C)c1O)c1cc(C)cc(C)c1O ? Its LD50 was > 80 mg/kg

====

assay: Cell viability (MTS) after treatment with bis-compound; format: cell-based; conditions: human, pha-activated pbmc, 5 μg/ml
QUANTITY: viability (%)
Please reply with the bare figure in % and do not write the unit itself.

Here are 6 compounds together with their reported answers.
| COMPOUND | READOUT_VALUE |
| --- | --- |
| CCCC(CCC)(c1ccc(O)cc1)c1ccc(O)c(C)c1 | 93 |
| Cc1cc(C2(c3ccc(O)c(C)c3)CCCCC2)ccc1O | 79 |
| CCCCCCC(C)(c1ccc(O)c(C)c1)c1ccc(O)c(C)c1 | 25 |
| CCC(c1cc(C)c(O)c(C(C)C)c1)c1cc(C)c(O)c(C(C)C)c1 | 33 |
| CC(C)(C)c1cc(C(c2ccc(C(=O)O)cc2)c2cc(C(C)(C)C)c(O)c(C(C)(C)C)c2)cc(C(C)(C)C)c1O | 88 |
| Cc1cc(C(C)c2cc(C)cc(C(C)(C)C)c2O)c(O)c(C(C)(C)C)c1 | 30 |

Lookup result for Cc1cc(C(C)(C)c2cc(C)c(O)c(C)c2)cc(C)c1O ; measured viability: 95

Cc1cc(O)c(C(C)C)cc1C(c1ccccc1)c1cc(C(C)C)c(O)cc1C yielded viability of 26

According to the records, this compound Cc1cc(C(c2ccc(C(C)C)cc2)c2cc(C)c(O)c(C)c2)cc(C)c1O displays viability of 96

For this compound ( CCCC(c1cc(C)cc(C)c1O)c1cc(C)cc(C)c1O ), measured viability is 107

Kindly note the recorded viability for CCC(C)(c1ccc(O)c(C)c1)c1ccc(O)c(C)c1 , which is 85

Lab note: Cc1cc(C(c2ccc([N+](=O)[O-])cc2)c2cc(C)c(O)c(C(C)(C)C)c2)cc(C(C)(C)C)c1O gave viability of 33

CCCC(C)(c1ccc(O)cc1)c1ccc(O)c(C)c1 (centres unmarked) yielded viability of 93

Looking up CCCCC(c1cc(C)cc(C(C)(C)C)c1O)c1cc(C)cc(C(C)(C)C)c1O , I found its viability recorded as 95

The recorded viability for CCCCCCCC(c1cc(C)cc(C)c1O)c1cc(C)cc(C)c1O is 105

Per the record, Cc1cc(C)c(O)c(Cc2cc(C)cc(C)c2O)c1 has viability of 97

viability reported for this compound Cc1cc(C(CCc2ccccc2)c2cc(C)cc(C(C)(C)C)c2O)c(O)c(C(C)(C)C)c1 : 98

====

system: IL-12 induction of IFN-γ in PHA-activated human PBMC; test: Screening assay for compounds which inhibit IL-12 induction of IFN-γ (ELISA); format: cell-based; settings: 5 μg/ml, IL-2 25 U/ml + IL-12 0.5 ng/ml, 48 hr, single test, read-out: % INH of IFNγ
Items are presented alongside their recorded inhibition at 5 µg/mL.

These recorded examples may help you get a feel for the data.
| COMPOUND | inhibition at 5 µg/mL |
| --- | --- |
| CC(C)(C)c1cc2c(cc1O)C(C)(C)c1cc(O)c(C(C)(C)C)cc1O2 [Compound 53433] | 97% |
| CC(C)(C)CC(C)(C)c1cc2c(cc1O)C(C)(C)c1cc(O)c(C(C)(C)CC(C)(C)C)cc1O2 [Compound 53437] | 74% |
| CCCC(c1cc(C)cc(C)c1O)c1cc(C)cc(C)c1O [Compound 51851] | 86% |
| CCCCCCC(C)(c1ccc(O)cc1)c1ccc(O)c(C)c1 (centres unmarked) [Compound 54059] | 64% |

For record Cc1cc(C2(c3ccc(O)c(C)c3)CCCCC2)ccc1O [Compound 54048] the listed inhibition at 5 µg/mL is 68%

compound Cc1cc(C(CCc2ccccc2)c2cc(C)cc(C(C)(C)C)c2O)c(O)c(C(C)(C)C)c1 [Compound 54016] , inhibition at 5 µg/mL observed: 26%

Per the records, this compound ( CCC(C)(c1cc(C)c(O)c(C)c1)c1cc(C)c(O)c(C)c1 [Compound 54056] ) has inhibition at 5 µg/mL equal to 84%

Per the records, this compound ( Cc1cc(C(c2cc(C)c(O)c(C)c2)c2ccc(O)c(O)c2)cc(C)c1O [Compound 54004] ) has inhibition at 5 µg/mL equal to -37%

====

assay: Cell viability (MTS) after treatment with bis-compound; format: cell-based; conditions: human, pha-activated pbmc, 5 μg/ml
QUANTITY: viability (%)
Use % as the unit, but write only the number.

| COMPOUND | UNIT_DESCRIPTOR | viability |
| --- | --- | --- |
| CCCCCCC(c1cc(C)cc(C)c1O)c1cc(C)cc(C)c1O [Compound 54015] | % | 34 |

The compound identified as CC(C)(C)CC(C)(C)c1cc2c(cc1O)C(C)(C)c1cc(O)c(C(C)(C)CC(C)(C)C)cc1O2 [Compound 53437] registered its viability at 85

Query CCCCCC(c1cc(C)cc(C(C)(C)C)c1O)c1cc(C)cc(C(C)(C)C)c1O [Compound 54018] yields viability of 92

Record summary for CCCC(c1cc(C)c(O)c(C)c1)c1cc(C)c(O)c(C)c1 [Compound 54044] : reported viability = 92

For record Cc1cc(C(c2ccc(Cl)cc2)c2cc(C)c(O)c(C)c2)cc(C)c1O [Compound 54042] the listed viability is 102

====

test: Toxicity of bis-compounds after single systemic dose; format: in vivo; details: mouse, in vivo; IV; 20% DMSO, 16% cremaphor; conc. sol. 10 mg/ml; single dose
QUANTITY: LD50

| MOLECULE | LD50 |
| --- | --- |
| CCCCC(C)(c1cc(C)c(O)c(C)c1)c1cc(C)c(O)c(C)c1 [Compound 52782] | < 80 mg/kg |

get_value(item= Cc1cc(C(C)(C)c2cc(C)c(O)c(C)c2)cc(C)c1O [Compound 54046] , readout=LD50) returns > 150 mg/kg

====

system: mice; test: Toxicity of bis-compounds after single systemic dose; type: in vivo; details: 150 mg/kg IV; 20% DMSO, 16% cremaphor; 10 mg/ml
QUANTITY: Results (Dead/Alive)

Solved cases (5 shown):
| COMPOUND | READOUT_VALUE |
| --- | --- |
| CCCC(C)(c1cc(C)c(O)c(C)c1)c1cc(C)c(O)c(C)c1 | Dead |
| Cc1cc(C)c(O)c(C(CC(C)CC(C)(C)C)c2cc(C)cc(C)c2O)c1 (stereo not drawn) | Dead |
| Cc1cc(C)c(O)c(Cc2cc(C)cc(C)c2O)c1 | Alive |
| CCC(C)(c1ccc(O)c(C)c1)c1ccc(O)c(C)c1 | Dead |
| CCCCCC(c1cc(C)cc(C)c1O)c1cc(C)cc(C)c1O | Dead |

The compound identified as CCCC(c1cc(C)c(O)c(C)c1)c1cc(C)c(O)c(C)c1 registered its Results (Dead/Alive) at Alive

For this compound ( Cc1cc(C(CCc2ccccc2)c2cc(C)cc(C(C)(C)C)c2O)c(O)c(C(C)(C)C)c1 ), measured Results (Dead/Alive) is Alive

compound Cc1cc(C(C)(C)c2cc(C)c(O)c(C)c2)cc(C)c1O , Results (Dead/Alive) observed: Alive

Value of measured Results (Dead/Alive) for the entry Cc1cc(C)c(O)c(C(CCCCCCC(C)C)c2cc(C)cc(C)c2O)c1 : Alive

====

Here the recorded inhibition at 5 µg/mL is given for each entry.
test system: IL-12 induction of IFN-γ in PHA-activated human PBMC; test: Screening assay for compounds which inhibit IL-12 induction of IFN-γ (ELISA); type: cell-based; settings: 5 μg/ml, IL-2 25 U/ml + IL-12 0.5 ng/ml, 48 hr, single test, read-out: % INH of IFNγ

Known inhibition at 5 µg/mL results, listed for orientation:
| CHEMICAL_STRUCTURE | READOUT_VALUE |
| --- | --- |
| CCC(c1cc(C)c(O)c(C(C)(C)C)c1)c1cc(C)c(O)c(C(C)(C)C)c1 | 98% |
| CCCCCCCC(c1cc(C)cc(C)c1O)c1cc(C)cc(C)c1O | 109% |
| CC(C)(C)c1cc(C(c2ccc(C(=O)O)cc2)c2cc(C(C)(C)C)c(O)c(C(C)(C)C)c2)cc(C(C)(C)C)c1O | 83% |

# inhibition at 5 µg/mL (molecule: CCCCCC(c1cc(C)cc(C)c1O)c1cc(C)cc(C)c1O ) is 77%

Documented inhibition at 5 µg/mL of CCCCC(c1cc(C)cc(C(C)(C)C)c1O)c1cc(C)cc(C(C)(C)C)c1O : 69%
